Source of measurements: patent US20240360238A1

# Study System: T1, purified human CD117 ectodomain (R&D Systems #332-SR) (human, UniProt P10721 26-524)
# T1 construct: extracellular domain; Bought protein; also called c-kit; purified recombinant human CD117 ectodomain
# T1 sequence (P10721 26-524): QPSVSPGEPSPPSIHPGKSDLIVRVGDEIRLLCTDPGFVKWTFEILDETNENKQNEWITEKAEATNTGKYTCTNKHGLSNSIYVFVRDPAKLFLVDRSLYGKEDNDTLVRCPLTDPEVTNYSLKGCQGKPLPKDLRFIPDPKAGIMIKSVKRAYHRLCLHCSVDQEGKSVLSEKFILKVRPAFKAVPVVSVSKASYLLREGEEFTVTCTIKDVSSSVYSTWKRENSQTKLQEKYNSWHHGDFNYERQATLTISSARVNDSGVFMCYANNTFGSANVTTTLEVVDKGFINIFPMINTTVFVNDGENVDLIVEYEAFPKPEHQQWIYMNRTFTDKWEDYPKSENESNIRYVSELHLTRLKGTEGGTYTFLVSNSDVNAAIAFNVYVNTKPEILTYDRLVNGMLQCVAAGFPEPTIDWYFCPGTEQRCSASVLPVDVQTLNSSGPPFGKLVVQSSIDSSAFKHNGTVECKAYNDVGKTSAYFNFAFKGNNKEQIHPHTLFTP
# Assay Info: BLI; kdis compared to HC-1/LC-1 (Ab1)
Give T when the value for Fold improvement (off-rate) is at least 7 fold. Give F when it is less.

stdin: Test whether the binder HC-79/LC-79 (Ab79) (antibody, IgG1, V domains shown, Purified human antibody tested as an IgG1; hIgG1/hKappa; also called Antibody 79) VH: QVQLVQSGAAVKKPGESLKISCKGSGYRFTTYWIGWVRQMPGKGLEWMGIIYPGDSDTRYSPSFQGQVTISAGKSISTAYLQWSSLKASDTAMYYCARHGRGYNGYEGAFDIWGQGTMVTVSS VL: DIQLTQSPSSLSASVGDRVTITCRASQGVGSALAWYQQKPGKAPKLLIYDASILESGVPSRFSGSGSGTDFTLTISSLQPEDFATYYCQQFNSYPLTFGGGTKVEIK records Fold improvement (off-rate) of 7 fold or higher.
stdout: F

stdin: Test whether the binder HC-77/LC-77 (Ab77) (antibody, IgG1, V domains shown, Purified human antibody tested as an IgG1; hIgG1/hKappa; also called Antibody 77) VH: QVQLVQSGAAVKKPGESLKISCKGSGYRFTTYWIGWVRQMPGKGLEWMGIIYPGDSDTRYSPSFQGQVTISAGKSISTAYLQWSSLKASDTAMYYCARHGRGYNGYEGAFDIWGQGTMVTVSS VL: DIQLTQSPSSLSASVGDRVTITCRASQGVISALAWYQQKPGKAPKLLIYDASILESGVPSRFSGSGSGTDFTLTISSLQPEDFATYYCQQFNSYPLTFGGGTKVEIK records Fold improvement (off-rate) of 7 fold or higher.
stdout: T
